Data origin, for the record: PubChem BioAssay (NCI)

- Test system: EKVX NSCLC
- Test Method Notes: NCI-60 one-dose screen, 48 h
- Protocol Conditions: 10 µM unless noted
About 83,000 compounds went through this panel and 20% of them were active in at least one assay; those are over-represented in the sample as a whole. Activity calls are given as the source filed them. How the source made its calls: active means growth percent below 10; inactive means the rest.
Parameter call: string, one of 1 = active, 0 = inactive

Completed entries (count: 5):
# lookup: test call for CN1CCCN(C(c2ccccc2)c2ccc(Cl)cc2)CC1 (configuration not stated)
0

// return assay outcome for `COc1nc2ccccc2s1`
0

What was the test verdict on `C[n+]1c(/C=C\C=C\N2CCCCC2)sc2ccccc21` ?
1

Status in this test for `OCCOc1ccc(-c2cc(-c3ccccn3)nc(-c3ccccn3)c2)cc1` ?
0

Hey, what did the test say about `Cc1nc(C)c(C(=O)O)cc1C(=O)O` ?
0

Others:
Dear colleague, could you share the recorded outcome for `Cc1cc(NC(=O)c2ccccc2)c(Cl)cc1N` when you have a moment?
0

Hello, I am checking results. What call was entered for ClCC(Cl)[C@@H]1CC2C=CC1C2 (some centres not stated) ?
0

What did the test return for `CCCCCCCCCc1ccc(OC(C)=O)cc1` ?
0

What did the test return for `Cc1ccnc(Nc2nc3ccccc3[nH]2)n1` ?
0

I'd appreciate the recorded outcome for `CCOC(=N)CC(=O)Nc1cccc(C)c1Cl` from this test.
0

Write down the call the test reported for this molecule. Item: COC1OC(COC(C)=O)C(OC(C)=O)C(OC(C)=O)C1OC(C)=O (configuration not stated)
0

# fetch the recorded call for `C=CCNC(=S)N/C=C(/C(=O)c1ccccc1)c1ccccc1` here
0

Record request — test call for `c1ccc(Oc2c3ccccc3nc3ccccc23)cc1`
0

Short answer needed: outcome of this test for `COc1ccc(/C=C\C(=O)/C=C/c2ccc(OC)cc2)cc1` ?
0

Would you mind telling me which call this test gave `CCCc1cccc(CCC)c1NC(=O)Nc1cc(Cl)cc(Cl)c1` ?
0

Please indicate how the test categorized `CCNC(=O)OCCc1c2ccccc2nc2ccccc12` .
0

Just curious, what result did `Cc1cc(Cc2ccccc2)c(O)c(Cc2ccccc2)c1` get here?
0

What outcome does the record of this test show for `CC(=O)Nc1ccc(/C=C2\SC(=S)N(/C=C(\C(C)=O)C(N)=O)C2=O)cc1` ?
0

Outcome logged for `c1ccc2c(NCCCN3CCN(CCCNc4c5ccccc5nc5ccccc45)CC3)c3ccccc3nc2c1` in this assay:
1

Test call, this molecule: CCC(C)C1CCC(O)CC1 (configuration not stated)
0

----------
Recorded measurements of growth, one per entry
- System: K-562 leukemia
- Test Method Notes: NCI-60 one-dose screen, 48 h (100 = growth as untreated, 0 = no growth, -100 = all killed)
- Protocol Conditions: 10 µM unless noted
About 83,000 compounds went through this panel and 20% of them were active in at least one assay; those are over-represented in the sample as a whole.
# output: bare number, implied unit %

Here are 10 compounds together with their reported answers.
Write down growth measured for item `COc1nc2ccccc2s1`
102

Given `CCOC(=O)CSCCC#N` , respond with its growth.
112

Name the recorded growth of the item COC1CC(OC(=O)c2ccc([N+](=O)[O-])cc2)C(COC(=O)c2ccc([N+](=O)[O-])cc2)O1 (centres undefined) in your answer.
107

For the compound `CCOc1ccc(C(=O)NCC(C)C)cc1` , give its measured growth value.
102

Return the recorded growth value; entry: `COc1ccc(NNS(=O)(=O)O)cc1`
99.5

Identify the reported growth for the following entry. CCCC(OC(C)=O)c1ccc2c(c1)OCO2 (centres undefined)
99

In one line, give reported growth of the entry `CC(=O)O[C@H]1CC[C@]2(C)C3=C(C(=O)C[C@H]2C1(C)C)[C@]1(C)CC[C@H]([C@H](C)CCC(=O)O)[C@@]1(C)CC3=O` .
86.8

Provide measured growth value, entry: `BrCc1cccc(C[P+](c2ccccc2)(c2ccccc2)c2ccccc2)c1`
28.8

Retrieve growth measured for `O=C(Nc1cccc(Cl)c1)c1ccc(Cl)cc1Cl` and print it.
90.9

Report measured growth; entry is COC(=O)C1(CC(C)=O)NC(=S)NC(=O)C1C#N (centres undefined)
104

New cases:
Using known records, supply growth for `O=S(=O)(O)C(C(I)I)S(=O)(=O)O`
105

Tell me growth reported for `O=C(O)c1c[nH]c2ccccc2c1=O`
93.1

Output growth of `O=Cc1ccc(F)cc1`
127

Input `Cc1ccccc1NC(=O)Oc1ccc(Cl)cc1C(=O)c1ccccc1` , output reported growth.
96.1

Return the recorded growth value; entry: CC1CC2C3CCC4=CC(=O)CCC4(C)C3CCC2(C)C1(O)C(=O)CO (centres undefined)
98.4

Consider the compound `CC(C)Sc1ncnc2nc[nH]c12` and give its recorded growth.
113

----------
- Test system: SK-MEL-2 melanoma
- Test Method Notes: NCI-60 one-dose screen, 48 h
- Protocol Conditions: 10 µM unless noted
About 83,000 compounds went through this panel and 20% of them were active in at least one assay; those are over-represented in the sample as a whole. Active and inactive are the calls of the source. How the source made its calls: active means growth percent below 10; inactive means the rest.
Response enum: active, inactive

Worked examples follow.
Recorded test outcome, item `CCN(C(C)=O)c1ccc([N+](=O)[O-])cc1`
inactive

Could you please tell me the result logged for `Nc1ccc(F)c(Cl)c1F` in this assay?
inactive

Any idea what this test logged for COC1C(=O)CCC2(CO2)C1(O)C1(C)OC1CCC(C)C (stereo not given) ?
inactive

I'd appreciate the recorded outcome for `COc1ccc2c(c1)Nc1ccccc1S2` from this test.
inactive

Could you check what this test reported for `Cc1cc(C(=O)c2ccccc2)cc(C)c1O` ?
inactive

New cases:
Which outcome was entered for the molecule `CC(=O)NNC(=S)N/C=C/c1c(C)ccc([N+](=O)[O-])c1[N+](=O)[O-]` in this test?
inactive

Which outcome did this test record for the molecule CC1CCC(C)(C)c2ccccc21 (stereo not given) ?
inactive

Lab log entry: `Cc1c(Cl)cccc1N=C=S` — outcome as called in the assay?
inactive

Tell me the assay call for `CC(=O)c1cccc(N(C)S(=O)(=O)c2ccc(C)cc2)c1` please.
inactive

Hi team, can someone confirm the assay call for `Cc1ccc(Cc2ccc(C)cc2)cc1` ?
inactive

Outcome? `S=c1nc2[nH]c3ccccc3c2n[nH]1`
active

Check the results log: what was the call for `Nc1nnc2cc(F)ccc2n1` ?
inactive

Outcome logged for `COc1cccc(C(=O)O)c1OC` in this assay:
inactive

Any idea what this test logged for CC(CC(CCC(=O)O)(c1ccccc1)c1ccccc1)N(C)C (stereo not given) ?
inactive

What was the test verdict on CN1CCCN(C(c2ccccc2)c2ccc(Br)cc2)CC1 (stereo not given) ?
inactive

----------
- Test system: SK-MEL-2 melanoma
- Test Method Notes: NCI-60 one-dose screen, 48 h
- Protocol Conditions: 10 µM unless noted
About 83,000 compounds went through this panel and 20% of them were active in at least one assay; those are over-represented in the sample as a whole. Activity calls are given as the source filed them. How the source made its calls: active means growth percent below 10; inactive means the rest.
The reply should name one outcome from active, inactive

Field: example entries. Status: answers known.
# fetch the recorded call for `c1ccc2c(NCCCN3CCN(CCCNc4c5ccccc5nc5ccccc45)CC3)c3ccccc3nc2c1` here
active

Tell me the recorded outcome of this test for `O=Cc1c(O)c2ccccc2[nH]c1=O` .
inactive

Returns: the outcome recorded for CC(=O)C1C(=O)C(=O)N(c2cccc([N+](=O)[O-])c2)C1=O (stereo unspecified) in this assay.
inactive

Lab log entry: `CS(=O)(=O)c1ccc(/C=C\C(=O)O)cc1` — outcome as called in the assay?
inactive

Outcome? `Nc1c(Br)cc(O)c2c1C(=O)c1ccccc1C2=O`
inactive

So what was the verdict on `C[C@H](CCC[C@H](C)OS(=O)(=O)c1ccccc1)OS(=O)(=O)c1ccccc1` in this test?
inactive

Can you look up the reported call for `COCC(N)=O` for me?
inactive

Assay outcome for `CN(C)Cc1ccccn1` : what was it?
inactive

Switching to the query record.
Can you look up the reported call for `O=C1C=C[C@H](O)[C@@]2(CO)O[C@@H]12` for me?
active

----------
- Test system: RPMI-8226 leukemia
- Test Method Notes: NCI-60 one-dose screen, 48 h
- Protocol Conditions: 10 µM unless noted
Compounds without any hit were thinned out: in the full panel of roughly 83,000, 20% have a hit. The source made the active and inactive calls. How the source made its calls: active means growth percent below 10; inactive means the rest.
Permitted responses: true (active), false (inactive)

// param item: `CCCCOC(=O)c1ccccc1O` ; yields the recorded call
false

Hi team, can someone confirm the assay call for `COc1nc(Nc2cccc(C(F)(F)F)c2)nc(OC)n1` ?
false

Per the assay record, what outcome was assigned to `O=c1cc(Cl)nc2ccccn12` ?
false

What did the test return for `CC(=O)c1cccs1` ?
false

Tell me the recorded outcome of this test for `NNC(=O)c1ccccc1N` .
false

***
Hello, I am checking results. What call was entered for `Cc1cc(Cc2ccccc2)c(O)c(Cc2ccccc2)c1` ?
false

Name the outcome recorded for `Cc1cc(CO)c(O)c(CO)c1` in the assay.
false
